assay: aqueous kinetic solubility; conditions: aqueous kinetic solubility
Each entry below carries its recorded Sol..
Give a bare numeral; the unit µg/mL is implied.

Use these answered entries as a reference point.
1) CC1=C(C(=O)Nc2nncs2)C(c2cccnc2Br)N=C(Nc2nc3ccccc3o2)N1 (stereo not shown) : 11.1
2) CC1=C(C(=O)Nc2cc(C(=O)O)ccc2F)C(c2ccccc2Cl)N=C(Nc2nc3ccccc3o2)N1 (stereo not shown) : 25.4
3) CC1=C(C(=O)N2CCOCC2)C(c2ccccc2Cl)N=C(Nc2nc3ccccc3o2)N1 (stereo not shown) : 15.3
4) COP(=O)(OC)C1=C(C)NC(Nc2nc3ccccc3o2)=NC1c1ccccc1Cl (stereo not shown) : 12.21

What does the record list as Sol. for CC1=C(C(=O)Nc2nncs2)C(c2ncccc2Br)N=C(Nc2nc3ccccc3o2)N1 (stereo not shown) ?
3.0

Name the reported Sol. value associated with the molecule CC1=C(C(=O)NCc2nccn2C)C(c2ccccc2Cl)N=C(Nc2nc3ccccc3o2)N1 (stereo not shown)
23.0

Report Sol. for CC1=C(C(=O)Nc2cccc(-c3nnn[nH]3)c2)C(c2ccccc2Cl)N=C(Nc2nc3ccccc3o2)N1 (stereo not shown) please.
47.5

Param item = O=C(O)CNC(=O)C1CC(=O)C2=C(C1)NC(Nc1nc3ccccc3o1)=NC2c1ccccc1Cl (stereo not shown) ; retrieve measured Sol..
58.23

I have this molecule here, O=C1CC(C(=O)Nc2nncs2)CC2=C1C(c1ccccc1Cl)N=C(Nc1nc3ccccc3o1)N2 (stereo not shown) , and I need its recorded Sol..
1.23

Query (molecule): CC1=C(C(=O)NCc2ccc(C(=O)O)cc2)C(c2ccccc2Cl)N=C(Nc2nc3ccccc3o2)N1 (stereo not shown) ; field requested: Sol.
47.0

---

test: PAMPA permeability; conditions: PAMPA
Consider the following molecules and their measured Perm. (1 × 10^−6 cm/sec) readings.

Known Perm. (1 × 10^−6 cm/sec) results, listed for orientation:
1. CC1=C(C(=O)NCc2nccn2C)C(c2ccccc2Cl)N=C(Nc2nc3ccccc3o2)N1 (stereo not shown) : >1113 1 × 10^−6 cm/sec
2. CC1=C(C(=O)NCc2cnn(C)c2)C(c2ccc(F)cc2Cl)N=C(Nc2nc3cccc(N)c3o2)N1 (stereo not shown) : 17.14 1 × 10^−6 cm/sec
3. CC1=C(S(C)(=O)=O)C(c2ccccc2Cl)N=C(Nc2nc3ccccc3o2)N1 (stereo not shown) : 42.78 1 × 10^−6 cm/sec
4. CC1=C(C(=O)Nc2ccc([N+](=O)[O-])cc2)C(c2ccccc2Cl)N=C(Nc2nc3ccccc3o2)N1 (stereo not shown) : <7.3 1 × 10^−6 cm/sec
5. CC1=C(C(=O)Nc2nncs2)C(c2ccccc2Cl)N=C(Nc2nc3ccccc3o2)N1 (stereo not shown) : 207.3 1 × 10^−6 cm/sec
6. CC1=C(C(=O)Nc2ccccc2CO)C(c2ccccc2Cl)N=C(Nc2nc3ccccc3o2)N1 (stereo not shown) : 1038.5 1 × 10^−6 cm/sec
7. CC1=C(C(=O)Nc2cc(CO)ccn2)C(c2ccccc2Cl)N=C(Nc2nc3ccccc3o2)N1 (stereo not shown) : 109.6 1 × 10^−6 cm/sec
8. CCn1cc(CNC(=O)C2=C(C)NC(Nc3nc4ccc(F)c(N)c4o3)=NC2c2ccccc2Cl)cn1 (stereo not shown) : 133.5 1 × 10^−6 cm/sec
9. CC1=C(C(=O)Nc2ccnc(C(=O)O)c2)C(c2ccccc2Cl)N=C(Nc2nc3ccccc3o2)N1 (stereo not shown) : <1 1 × 10^−6 cm/sec
10. CC1=C(C(=O)Nc2cccc(CO)c2)C(c2ccccc2Cl)N=C(Nc2nc3ccccc3o2)N1 (stereo not shown) : 1124.1 1 × 10^−6 cm/sec

Which value of Perm. (1 × 10^−6 cm/sec) has been reported for CC1=C(C(=O)NCc2cccc(CO)c2)C(c2ccccc2Cl)N=C(Nc2nc3ccccc3o2)N1 (stereo not shown) in the records?
868.8 1 × 10^−6 cm/sec

Which Perm. (1 × 10^−6 cm/sec) is reported for this molecule? CNC(=O)C1CC(=O)C2=C(C1)NC(Nc1nc3ccccc3o1)=NC2c1ccccc1Cl (stereo not shown)
430.36 1 × 10^−6 cm/sec

Which measured Perm. (1 × 10^−6 cm/sec) value corresponds to CCn1cc(CNC(=O)C2=C(C)NC(Nc3nc4ccc(F)c(N)c4o3)=N[C@H]2c2ccc(C)cc2Cl)cn1 ?
407.39 1 × 10^−6 cm/sec

Return reported Perm. (1 × 10^−6 cm/sec); argument: CC1=C(C(=O)NCc2ccccc2CO)C(c2ccccc2Cl)N=C(Nc2nc3ccccc3o2)N1 (stereo not shown)
1362.3 1 × 10^−6 cm/sec

Query (molecule): CC1=C(C(=O)Nc2ccccc2O)C(c2ccccc2Cl)N=C(Nc2nc3ccccc3o2)N1 (stereo not shown) ; field requested: Perm. (1 × 10^−6 cm/sec)
21.1 1 × 10^−6 cm/sec

Data request, read-out Perm. (1 × 10^−6 cm/sec), for CC1=C(C(=O)Nc2ccc(Cl)cc2)C(c2ccccc2Cl)N=C(Nc2nc3ccccc3o2)N1 (stereo not shown)
2.0 1 × 10^−6 cm/sec

What value of measured Perm. (1 × 10^−6 cm/sec) is listed for CC1=C(C(=O)NCc2ccccn2)C(c2ccccc2Cl)N=C(Nc2nc3ccccc3o2)N1 (stereo not shown) ?
1424.0 1 × 10^−6 cm/sec

Reported Perm. (1 × 10^−6 cm/sec) for O=C1CC(C(=O)Nc2nncs2)CC2=C1C(c1ccccc1Cl)N=C(Nc1nc3ccccc3o1)N2 (stereo not shown) : what is it?
<5 1 × 10^−6 cm/sec

Would you kindly share the measured Perm. (1 × 10^−6 cm/sec) for CC1=C(C(=O)Nc2nncs2)C2(CCCC2)N=C(Nc2nc3ccccc3o2)N1 ?
<1 1 × 10^−6 cm/sec

GET /values?readout=Perm. (1 × 10^−6 cm/sec)&item= CCn1ncc(CNC(=O)C2=C(C)NC(Nc3nc4ccc(F)c(N)c4o3)=NC2c2ccc(C)cc2Cl)c1F (stereo not shown)
427.4 1 × 10^−6 cm/sec

Param item = CC1=C(C(=O)Nc2cc(C(=O)O)ccn2)[C@@H](c2ccccc2Cl)N=C(Nc2nc3ccccc3o2)N1 ; retrieve measured Perm. (1 × 10^−6 cm/sec).
<1 1 × 10^−6 cm/sec

# get_value(readout='Perm. (1 × 10^−6 cm/sec)', item= COC(=O)c1cccc(NC(=O)C2=C(C)NC(Nc3nc4ccccc4o3)=NC2c2ccccc2Cl)n1 (stereo not shown) )
18.9 1 × 10^−6 cm/sec

Name the recorded Perm. (1 × 10^−6 cm/sec) for O=C1CC(C(=O)NCCO)CC2=C1C(c1ccccc1Cl)N=C(Nc1nc3ccccc3o1)N2 (stereo not shown) .
<2 1 × 10^−6 cm/sec

Perm. (1 × 10^−6 cm/sec) lookup needed for CCn1cc(CNC(=O)C2=C(C)NC(Nc3nc4cccc(N)c4o3)=NC2c2ccc(F)cc2Cl)cn1 (stereo not shown) , thanks.
188.9 1 × 10^−6 cm/sec

# lookup: Perm. (1 × 10^−6 cm/sec) of COP(=O)(OC)C1=C(C)NC(Nc2nc3ccccc3o2)=NC1c1ccccc1Cl (stereo not shown)
1813.86 1 × 10^−6 cm/sec
